assay: physchem; details: 2:1 EtOH/H2O + 5 vol.-% NH3 solution, aqueous with cosolvent or surfactant or cyclodextrin, thermodynamic from solid
Field: solubility. Provide a value for each of the compounds that follow.

Requested field: solubility. Item: OC[C@@H](O)[C@@H](O)[C@H](O)[C@@H](O)CO
125 to 250 mg/mL

Look up solubility: Cc1c(OCC(F)(F)F)ccnc1C[S@@+]([O-])c1nc2ccccc2[nH]1 [SP134-FD-P1, dexlansoprazole sesquihydrate, reference compound]
100 to 200 mg/mL

* * *

Exercise: state measured solubility for each of the compounds provided.
assay: physchem; details: 1:1 EtOAc/DMSO (v/v), organic solvent or mixture, thermodynamic from solid

Would you kindly share the measured solubility for OC[C@@H](O)[C@@H](O)[C@H](O)[C@@H](O)CO ?
125 to 250 mg/mL

If you can, please state the reported solubility value of Cc1c(OCC(F)(F)F)ccnc1C[S@@+]([O-])c1nc2ccccc2[nH]1 [SP134-FD-P1, dexlansoprazole sesquihydrate, reference compound] .
> 200 mg/mL
